B1: SNX3 (parent)
chain: FLRQLPFRGDDGIFDDNFIEERKQ

variants of: B1; test: protein stability index of a GFP-peptide fusion (GPS, HEK-293T) (PSI 1-6); higher = more stable; details: c terminus: a fixed tail appended;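 note: lentivirally expressed fusions sorted by FACS into six bins by GFP to DsRed ratio, PSI derived from sequencing read proportions per bin multiplied by bin number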
PARAMETER: protein stability index
No unit in the answer, only the number.

In the examples that follow, each entry is paired with its recorded protein stability index.
variant_notation=F14H assay_value=4.32
variant_notation=D16V assay_value=3.45
variant_notation=D15Y assay_value=2.43
variant_notation=Q4S assay_value=2.95
variant_notation=L2F assay_value=3.16
variant_notation=R3G assay_value=3.1
variant_notation=R22A assay_value=3.56
variant_notation=F14Q assay_value=3.67

Now, please, on to the next variant.
Task item: So what does the record say about protein stability index for N17R ?
Reply: 2.61
